Please provide measured viability at 28.5 h, 10 µM for the entries that follow.
- experiment-description: in vitro
- condition-parameters: human, hela cells, % viability
One number for each entry, in %.

Answered cases to consult:
CCc1noc(C)c1C(=O)Nc1cccc(Cn2cc(Cl)cn2)c1 [CBK268127]    97.6
Cc1csc(C(=O)N2CCC(c3cc(O)cc(C)n3)CC2)c1 [CBK283466]    89
N=c1c2c(-c3ccccc3)c(-c3ccccc3)oc2ncn1CCCN1CCOCC1 [CBK268484]    92.6

Go through the items and report each one's viability at 28.5 h, 10 µM.
1. COC(=O)COc1ccc(S(=O)(=O)NCc2ccc3c(c2)OCO3)cc1C [CBK267172]
2. CN(C)CCCNC(=O)CCc1ccccc1 [CBK263806]
3. CCOC(=O)C(NC(=O)C1CCC(=O)N1)c1cccc(C)c1C (stereo not drawn) [CBK305472]
4. CC1=C(C(=O)OCC(=O)c2ccc(C)cc2)C2C=C(Br)C=CC2N=C1c1ccc(C)cc1 (stereo not drawn) [CBK264079]
5. COc1cncc(-c2ccc(N3CCN(C(=O)c4ccco4)CC3)nc2)c1 [CBK037801]

Given back:
[90.3, 93, 93.8, 94, 96.7]

Asked: Suppose we examine the compound Cc1ccc(-c2csc(NC(=O)c3cccnc3)n2)cc1 [CBK072677] ; what viability at 28.5 h, 10 µM value has been reported?
Given back: 96.9

Where do the numbers come from? From paper PMC12040169.
